- Assay: Plasma stability profiling Method #1 (MALDI-TOF, 35% plasma), rat plasma
- Assay type: in vitro ADME
- Measurement setup: Table 21; method #1
Numbered stars: 1 amine (or outer) side, 2 acyl side, 3 side chain; on linkers, the order of the positions; unused ones are H or OH. Bridge positions count the residues as written; N and C are the ends. Peptide text beside a SMILES is read from it. TBMB = c1c(C[*:1])cc(C[*:3])cc1C[*:2]

Compound: CC(=O)N[C@H]1CSCc2cc3cc(c2)CSC[C@H](NC(=O)[C@H](CCCNC(=N)N)NC(=O)[C@H](C)NC(=O)[C@@H]2CCCN2C(=O)[C@H](Cc2ccccc2)NC(=O)[C@H](CO)NC1=O)C(=O)N[C@@H](CC(C)C)C(=O)N[C@@H](Cc1c[nH]cn1)C(=O)N[C@@H](CCC(N)=O)C(=O)N[C@@H](CC(=O)O)C(=O)N[C@@H](CC(C)C)C(=O)N[C@H](C(N)=O)CSC3 [Ac-(06-34-18) FPAR] (Ac-CSFPARCLHQDLC-NH2; linker 1-7-13 via TBMB)
Observable in rat plasma, for days, days: 2

Compound: CC(=O)N[C@H]1CSCc2cc3cc(c2)CSC[C@H](NC(=O)[C@H](CCCNC(=N)N)NC(=O)[C@H](Cc2ccc(O)cc2)NC(=O)[C@@H]2CCCN2C(=O)[C@H](Cc2c[nH]c4ccccc24)NC(=O)[C@H](CO)NC1=O)C(=O)N[C@@H](CC(C)C)C(=O)N[C@@H](Cc1c[nH]cn1)C(=O)N[C@@H](CCC(N)=O)C(=O)N[C@@H](CC(=O)O)C(=O)N[C@@H](CC(C)C)C(=O)N[C@H](C(N)=O)CSC3 [Ac-(06-34-18) WPYR] (Ac-CSWPYRCLHQDLC-NH2; linker 1-7-13 via TBMB)
Observable in rat plasma, for days, days: 2

Compound: CC(=O)N[C@H]1CSCc2cc3cc(c2)CSC[C@H](NC(=O)[C@H](CCCNC(=N)N)NC(=O)[C@H](CO)NC(=O)[C@@H]2CCCN2C(=O)[C@H](Cc2c[nH]c4ccccc24)NC(=O)[C@H](CO)NC1=O)C(=O)N[C@@H](CC(C)C)C(=O)N[C@@H](Cc1c[nH]cn1)C(=O)N[C@@H](CCC(N)=O)C(=O)N[C@@H](CC(=O)O)C(=O)N[C@@H](CC(C)C)C(=O)N[C@H](C(N)=O)CSC3 [Ac-(06-34-18) WPSR] (Ac-CSWPSRCLHQDLC-NH2; linker 1-7-13 via TBMB)
Observable in rat plasma, for days, days: 2
